- testDescription: Pharmacokinetics and brain distribution after single sc dose to mice
- Type: in vivo
- appliedConditions: female, C57Bl/6J, mouse, in vivo, sc, 25 mg/kg
experimentalEndpoint: AUC(0-inf) (µM·h)
Could you give me the number in µM·h? Just the number is fine.

Just so you know, measured AUC(0-inf) for O=S(=O)(CC1CS1)c1ccc(Oc2ccc(O)cc2)cc1 (stereo not shown) came out at 1.17

###

- testDescription: Pharmacokinetics and brain distribution after single sc dose to mice
- Type: in vivo
- appliedConditions: female, C57Bl/6J, mouse, in vivo, sc, 25 mg/kg, t½β, plasma
experimentalEndpoint: half-life
A complete answer gives the number and then names the unit.

compound O=S(=O)(CC1CS1)c1ccc(Oc2ccc(O)cc2)cc1 (stereo not shown) [Compound 2] , half-life observed: 7.7 h

Origin of measurements: paper PMC3880597
